Biological target: ALK5/TGFBR1 (Homo sapiens, UniProt P36897, T204D)
Sequence (P36897 34-503 T204D): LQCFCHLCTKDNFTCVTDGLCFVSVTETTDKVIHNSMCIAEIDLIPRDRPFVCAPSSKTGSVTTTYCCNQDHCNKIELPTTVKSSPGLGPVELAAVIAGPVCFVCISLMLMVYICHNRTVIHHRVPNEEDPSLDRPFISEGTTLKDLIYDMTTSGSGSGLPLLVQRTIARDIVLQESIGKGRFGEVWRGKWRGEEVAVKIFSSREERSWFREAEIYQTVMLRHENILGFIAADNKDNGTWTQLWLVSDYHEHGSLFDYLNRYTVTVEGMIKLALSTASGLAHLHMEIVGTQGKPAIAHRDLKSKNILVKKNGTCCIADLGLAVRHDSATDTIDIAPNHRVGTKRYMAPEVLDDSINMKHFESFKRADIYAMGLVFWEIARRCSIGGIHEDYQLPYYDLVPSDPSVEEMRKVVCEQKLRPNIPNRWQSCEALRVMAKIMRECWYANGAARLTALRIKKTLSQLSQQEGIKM
Experiment: CAGA-Luc luciferase reporter in HEK293 cells driven by constitutively active ALK5
Settings: Ad.caALK5, read-out: IC50 inhibition of caALK5 activity (CAGA-Luc)
PROPERTY_LABEL: IC50

INSERT INTO measurements (compound_structure, measured) VALUES
  ('CN1CCN(CCOc2cc(OC3CCOCC3)c3c(Nc4c(Cl)ccc5c4OCO5)ncnc3c2)CC1', '0.22 µM');
